# Test system: thyroid hormone receptor (TR)
# Assay: Classification of TR actives across characterization assays (TR-Ag / RXR-Ag; TR model binary)
# Parameters: key: FP, false positive
# Applied Conditions: TR agonist characterization
Structures can show the parent of a compound that is named as a salt.
Reported Property: Categorization Code

Solved entries:
Molecule	Data Value
COc1ccc(OC)c(C(O)C(C)N)c1 (stereo not drawn) [Methoxamine hydrochloride]	FP
CC1=C(/C=C/C(C)=C/C=C/C(C)=C/C(=O)O)C(C)(C)CCC1 [all trans-Retinoic acid, reference compound]	RXR-Ag
COc1cc(C)c(/C=C/C(C)=C/C=C/C(C)=C/C(=O)O)c(C)c1C [Acitretin, reference compound]	RXR-Ag
CSCC[C@H](NC(=O)[C@H](Cc1ccc(OS(=O)(=O)O)cc1)NC(=O)[C@@H](N)CC(=O)O)C(=O)NCC(=O)N[C@@H](Cc1c[nH]c2ccccc12)C(=O)N[C@@H](CCSC)C(=O)N[C@@H](CC(=O)O)C(=O)N[C@@H](Cc1ccccc1)C(N)=O [Sincalide, reference compound]	RXR-Ag

Summary for this molecule, N[C@@H](Cc1ccc(Oc2cc(I)c(O)c(I)c2)c(I)c1)C(=O)O [3,3',5'-Triiodo-L-thyronine] : Categorization Code is TR-Ag

Per the record, Cc1cccc(C)c1[N+](=O)[O-] [1,3-Dimethyl-2-nitrobenzene] has Categorization Code of FP
